Values compiled from patent US10253052B2.

Assay: In vivo biodistribution in mice
Design: species or system normal CD-1 male mice
Conditions: iv, 120 min post injection
Description: Biodistribution experiments were performed by intravenously administering ^68Ga labeled 1a-h, 2, 3, BPAMD, and [^18F]NaF into normal, healthy male CD-1 mice (25-30 g). The injection activity was 20-30 μCi/animal. […] Organs of interest were harvested, weighed, and counts of radioactivity were measured by a gamma counter. The biodistribution of each sample was calculated as a percentage of the injected dose per gram of wet tissue weight (% ID/g). […]
Endpoint: Biodistribution: Pancreas (% dose/g)
Just the number please, in % dose/g, no unit attached.

Read the entry O=C([O-])CN(CCN(CC(=O)[O-])Cc1cc(CCC(=O)N[C@@H](CC(=O)O)C(=O)O)ccc1[O-])Cc1cc(CCC(=O)NC(P(=O)(O)O)P(=O)(O)O)ccc1[O-].[68Ga+3] [[^68Ga]1e] and write its reported Biodistribution: Pancreas.
0.04

Read the entry O=C([O-])CN(CCN(CC(=O)[O-])Cc1cc(CCC(=O)N[C@@H](CCC(=O)O)C(=O)O)ccc1[O-])Cc1cc(CCC(=O)NC(P(=O)(O)O)P(=O)(O)O)ccc1[O-].[68Ga+3] [[^68Ga]1f] and write its reported Biodistribution: Pancreas.
0.04

Read the entry O=C([O-])CN(CCN(CC(=O)[O-])Cc1cc(CCC(=O)NC(P(=O)(O)O)P(=O)(O)O)ccc1[O-])Cc1cc(CCC(=O)NC(P(=O)(O)O)P(=O)(O)O)ccc1[O-].[68Ga+3] [[^68Ga]2] and write its reported Biodistribution: Pancreas.
0.31

Read the entry O=C([O-])CN(CCN(CC(=O)[O-])Cc1cc(CCC(=O)O)ccc1[O-])Cc1cc(CCC(=O)O)ccc1[O-].[68Ga+3] [[^68Ga]HBED-CC, reference compound] and write its reported Biodistribution: Pancreas.
0.07

Read the entry C[C@H](NC(=O)CCc1ccc([O-])c(CN(CCN(CC(=O)[O-])Cc2cc(CCC(=O)NC(P(=O)(O)O)P(=O)(O)O)ccc2[O-])CC(=O)[O-])c1)C(=O)O.[68Ga+3] [[^68Ga]1d] and write its reported Biodistribution: Pancreas.
0.04

Read the entry O=C([O-])CN(CCN(CC(=O)[O-])Cc1cc(CCC(=O)NC(P(=O)(O)O)P(=O)(O)O)ccc1[O-])Cc1cc(CCC(=O)NC2C(O)OC(CO)C(O)C2O)ccc1[O-].[68Ga+3] (stereo not shown) [[^68Ga]1b] and write its reported Biodistribution: Pancreas.
0.08

Read the entry O=C([O-])CN(CCN(CC(=O)[O-])Cc1cc(CCC(=O)NC(P(=O)(O)O)P(=O)(O)O)ccc1[O-])Cc1cc(CCC(=O)NCCCNC(=O)CCc2ccc(O)c(CN(CCN(CC(=O)O)Cc3cc(CCC(=O)NC(P(=O)(O)O)P(=O)(O)O)ccc3O)CC(=O)O)c2)ccc1[O-].[68Ga+3] [[^68Ga]3] and write its reported Biodistribution: Pancreas.
0.25

Read the entry [18F-].[Na+] [[^18F]NaF, reference compound] and write its reported Biodistribution: Pancreas.
0.02

Read the entry O=C([O-])CN(CCN(CC(=O)[O-])Cc1cc(CCC(=O)NC(P(=O)(O)O)P(=O)(O)O)ccc1[O-])Cc1cc(CCC(=O)O)ccc1[O-].[68Ga+3] [[^68Ga]1a] and write its reported Biodistribution: Pancreas.
0.05

Read the entry O=C(O)CN1CCN(CC(=O)O)CCN(CC(=O)NC(P(=O)(O)O)P(=O)(O)O)CCN(CC(=O)O)CC1.[68Ga] [[^68Ga]BPAMD, reference compound] and write its reported Biodistribution: Pancreas.
0.33
